This section presents binders with their documented pKd values.
target-or-system: T1, biotin-labeled human ADM (human, not fully specified; biotin label (named human ADM-C-biotin in Example 1.4; position of the biotin not stated for the other lots))
T1 construct: Synthetic peptide; also called human ADM-C-biotin; hADM-Biotin
T1 peptide: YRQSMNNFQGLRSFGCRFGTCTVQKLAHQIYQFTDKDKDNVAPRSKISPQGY
assay-name: BLI (Octet RED96e), as in Example 3
For clarity, pKd is expressed as the negative log10 of concentration in mol/L.

See these solved cases before continuing.
Ab2004.Am39 (IgG1 antibody) (antibody, V domains shown, Expressed in CHO cells, human IgG1/kappa) VH: QVQLVQSGAEVKKPGASVKVSCKASGYTFTHYGIAWVRQAPGQGLEWMGWISAYQGNTNYAQKLQGRVTMTRDTSTSTAYMELRSLRSDDTAVYYCAREGRWGGSFNIWGQGTMVTVSS VL: DIQMTQSPSSLSASVGDRVTITCRASQGISSYLAWYQQKPGKAPKLLIYDASNLETGVPSRFSGSGSGTDFTFTISSLQPEDIATYYCQQYDDLDLTFGGGTKVEIKR	9.75
Ab2004.Am37 (IgG1 antibody) (antibody, V domains shown, Expressed in CHO cells, human IgG1/kappa) VH: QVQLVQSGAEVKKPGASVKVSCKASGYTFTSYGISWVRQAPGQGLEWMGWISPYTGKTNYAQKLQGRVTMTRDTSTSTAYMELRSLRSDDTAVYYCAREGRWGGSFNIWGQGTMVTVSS VL: DIQMTQSPSSLSASVGDRVTITCRASQGISSYLAWYQQKPGKAPKLLIYDVSILDAGVPSRFSGSGSGTDFTFTISSLQPEDIATYYCQQYDNLPLTFGGGTKVEIKR	9.59

## Input Consider the binder Ab2004.Am32 (IgG1 antibody) (antibody, V domains shown, Expressed in CHO cells, human IgG1/kappa) VH: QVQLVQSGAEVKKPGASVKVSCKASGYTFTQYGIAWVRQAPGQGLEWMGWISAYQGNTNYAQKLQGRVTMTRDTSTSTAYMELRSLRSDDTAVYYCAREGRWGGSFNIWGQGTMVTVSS VL: DIQMTQSPSSLSASVGDRVTITCRAAEGIGSYLAWYQQKPGKAPKLLIYDASNLETGVPSRFSGSGSGTDFTFTISSLQPEDIATYYCQQYDNLPLTFGGGTKVEIKR and give its measured pKd.
## Output 9.47
